System: Caco-2
assay name: MTT antiproliferation assay
Type: cell-based, human
setup conditions: Homo sapiens; Caco-2, MTT, 24 h, single agent, mean ± SEM
quantity: pIC50
Numbers only, as −log10 of the molar value.

Known results for compounds:
>  <compound>
CC1=C(/C=C/C(C)=C/C=C/C(C)=C/C(=O)O)C(C)(C)CCC1 [ATRA, All-trans retinoic acid, reference compound]

>  <quantity>
pIC50

>  <result>
4.24

$$$$
>  <compound>
CC1(C)CCC(C)(C)c2cc(C#Cc3ccc(C(=O)O)cc3)ccc21

>  <quantity>
pIC50

>  <result>
4.83

$$$$
>  <compound>
O=c1[nH]cc(F)c(=O)[nH]1 [5-FU, 5-fluorouracil, reference compound]

>  <quantity>
pIC50

>  <result>
4.74

$$$$

Ask: I'd like to know its pIC50. The compound in question is CC1(C)CCC(C)(C)c2cc(C#Cc3cccc(C(=O)O)c3)ccc21
Reply: 4.97
